Test system: CP269
assayRemarks: qHTS profiling for inhibitors of Plasmodium falciparum proliferation (AID 504749); further: nearly all actives have a fitted effect of over 60% in size
runConditions: P. falciparum in erythrocytes, SYBR Green DNA, 72 h; series mostly up to 28.7 µM
Records with an inconclusive call do not appear. The source made the active and inactive calls. The call rests on the fitted dose curve; in most records, active means well fitted inhibition curve with a large enough effect; inconclusive means small, poorly fitted or top-dose-only effect; inactive means flat fitted curve, though single readings scatter.
Thanks in advance; please answer with one of these: 1 (active), 0 (inactive)

The following compounds have reported results that may help.
compound	groupLabel
O=S(=O)(O)O	0
COC(C(=O)C(O)C(C)O)C1Cc2cc3cc(OC4CC(OC5CC(O)C(O)C(C)O5)C(O)C(C)O4)c(C)c(O)c3c(O)c2C(=O)C1OC1CC(OC2CC(OC3CC(C)(O)C(O)C(C)O3)C(O)C(C)O2)C(O)C(C)O1 (stereo not given)	1
COC(=O)C1=C(C#N)NC(C)=C(C(=O)OC(C)C)C1c1cccc([N+](=O)[O-])c1 (stereo not given)	1

INPUT: Which outcome was entered for the compound CC1(C)C(C=C(Cl)Cl)C1C(=O)OCc1cccc(Oc2ccccc2)c1 (stereo not given) in this test?
OUTPUT: 0

INPUT: # fetch the recorded call for C[C@@H]1CCC2[C@@H](C)[C@@H](O)O[C@@H]3O[C@@]4(C)CC[C@@H]1[C@@]23OO4 (stereo not given in full) here
OUTPUT: 1

INPUT: Test call for this compound, please: COc1ccc2c3c1O[C@H]1C[C@@H](O)C=C[C@@]31CCN(C)C2
OUTPUT: 0
